protocol: reversal of MRP1-mediated doxorubicin resistance, pilot screen, H69AR cells, doxorubicin co-treatment (AID 601)
conditions_used: H69AR cells, CellTiter-Glo, 72 h; compound alone cytotoxicity; at 10 µM
quantity: viability (%)
Your answer should be a plain number; it is taken to be in %.

Solved cases below.
INSERT INTO assay_data (compound, unit_string, assay_value) VALUES
  ('CCOC(=O)N1CCN(CC(=O)c2c(C)[nH]c3ccccc23)CC1', '%', 75.2),
  ('Cc1cc(NC(=O)COc2cccc3cccnc23)no1', '%', 81),
  ('COc1ccc(Oc2nc(Oc3ccc(OC)cc3)nc(Oc3ccc(OC)cc3)n2)cc1', '%', 94.6);

QUERY: Look up viability: CC(=O)c1cc(C#N)c(SCC(=O)OC(C)C)nc1C
RESULT: 61.2

QUERY: So what's the measured viability for this one? O=C(CN(C(=O)CCC(=O)Nc1nccs1)c1ccccc1F)NCC1CCCO1 (stereo not given)
RESULT: 100

QUERY: Endpoint output: viability of c1ccc2c(c1)CNC1(CCCCC1)C2 . Value?
RESULT: 102

QUERY: Which viability reading was recorded for the compound CCc1cc(C(=O)OC)c(NC(=O)CCC(=O)O)s1 ?
RESULT: 107

QUERY: Look up viability for this compound: CC(=O)N1C(=O)C2(Nc3ccccc3N2)c2ccccc21
RESULT: 97.6

QUERY: Would you kindly share the measured viability for Cc1nnc(SCC2=C(C(=O)O)N3C(=O)[C@@H](NC(=O)Cn4cnnn4)[C@H]3SC2)s1 ?
RESULT: 101
